- Test system: P388 leukemia ip, CD2F1 mice, survival T/C
- test summary: NCI In Vivo Anticancer Drug Screen. Data for tumor model P388 Leukemia (intraperitoneal) in CD2F1 (CDF1) mice
- measurement setup: endpoint: median survival time; dose: 200.0 mg/kg/injection; schedule: Q01DX009 (ip); vehicle: saline; higher = longer survival
Toxic doses and inconclusive results are not listed.
Hi there, I'd appreciate the recorded T/C for every entry that follows.

Worked set:
Record Nc1ccc2nc(N)sc2c1 , field T/C: 101 % of control

So, CC(=O)Oc1ccc2c(c1)c1c(OC(C)=O)c(N(C)C(C)=O)cc(OC(C)=O)c1n2C ? Its T/C was 100 % of control

Data point: O=C1CSCc2nc3ccccc3n21 ; T/C = 103 % of control

# compound NC1=NC(c2ccccc2O)CC(=O)N1 (stereo not given) ; its T/C = 110 % of control

Field T/C (entry Cc1noc(N)c1C ) reads 95 % of control

Short answer for CC(C)CC(N)C(=O)NC(Cc1c[nH]c2ccccc12)C(N)=O (stereo not given) : T/C was 99 % of control

Looking up CC(C)(C)c1ccc(S(=O)(=O)O)cc1 , I see its T/C listed as 86 % of control

# T/C (compound: CSCC(N)CO (stereo not given) ) is 101 % of control

Give one value of T/C per listed compound.
1. O=c1cncc[nH]1
2. CCOCC(=O)OCC
3. CSCCCCCCCCCCSC

**Result**
96 % of control
101 % of control
99 % of control

Provide T/C for all items below, preserving their order.
1. CC(O)CCCC(C)O (stereo not given)
2. OCC1OC(O)C(Cl)(Cl)C(O)C1O (stereo not given)
3. NC(CC(=O)O)C(=O)O (stereo not given)
4. CS(=O)(=O)C12CCCN1C(=O)C1CCCN1C2=O (stereo not given)

**Result**
1. 109 % of control
2. 112 % of control
3. 100 % of control
4. 90 % of control

----------
- System: P388 leukemia ip, CD2F1 mice, survival T/C
- test summary: NCI In Vivo Anticancer Drug Screen. Data for tumor model P388 Leukemia (intraperitoneal) in CD2F1 (CDF1) mice
- measurement setup: endpoint: median survival time; dose: 200.0 mg/kg/injection; schedule: Q01DX001 (ip); vehicle: Klucel (hydroxypropylcellulose) (HPC); higher = longer survival
Toxic doses and inconclusive results are not listed.
measurement name: T/C

See these solved cases before continuing.
Field T/C (entry O=CC1N=C1c1ccccc1 (stereo not given) ) reads 90 % of control

So for C=CC1(OC)CC1CO (stereo not given) , the logged T/C turned out to be 95 % of control

Measured T/C, CC1OC2=C(CC1O)C(=O)c1ccccc1C2=O (stereo not given) : 102 % of control

// each molecule listed below needs its T/C
1. O=C1N=c2ccc(Br)cc2=C1c1sc(=O)n(Cc2nc3ccccc3[nH]2)c1O
2. C=Cn1c([N+](=O)[O-])cnc1/C=C/c1ccc(C#N)cc1

**Result**
["93 % of control", "96 % of control"]

----------
- Tested on: P388 leukemia ip, CD2F1 mice, survival T/C
- test summary: NCI In Vivo Anticancer Drug Screen. Data for tumor model P388 Leukemia (intraperitoneal) in CD2F1 (CDF1) mice
- measurement setup: endpoint: median survival time; dose: 400.0 mg/kg/injection; schedule: Q04DX002 (ip); vehicle: Klucel (hydroxypropylcellulose) (HPC); higher = longer survival
Inconclusive results and toxic doses are left out.
Kindly supply the reported T/C values for the records listed here.

Known T/C results, listed for orientation:
So for O=C1c2ccccc2-n2c1nc1ccc([N+](=O)[O-])cc1c2=O , the logged T/C turned out to be 96 % of control

Query O=C1C(N=Nc2cc(Cl)ccc2Cl)C(O)N(c2ccc(Cl)cc2)C(=S)N1c1cccc(Cl)c1Cl (configuration not stated) yields T/C of 99 % of control

Please report T/C for every entry that follows.
1. CC1=CS(=O)c2ccccc2N1C (configuration not stated)
2. c1ccc(C23CC4CCCCC4CC2O3)cc1 (configuration not stated)
3. CSC(=S)n1nc(-c2ccccc2)c(N=Nc2ccc(Br)cc2)c1-c1ccccc1
4. CC1=CC2C(=O)N(C)C1c1ccccc12 (configuration not stated)
5. Cc1ccc(NC2SC(=O)N(Cc3ccccc3)/C2=N/N=C2\C(Nc3ccc(C)cc3)SC(=O)N2Cc2ccccc2)cc1 (configuration not stated)

**Result**
1. 108 % of control
2. 104 % of control
3. 101 % of control
4. 97 % of control
5. 97 % of control
